Assay: Pharmacokinetic of acylated HBD-1 fragment analogs in male Sprague Dawley rats after subcutaneous injection
Type: in vivo
Conditions: Table 24, sc, 1 μmol net peptide/kg
Residues, ends and D or L forms follow the SMILES beside them. *: point of attachment. Arachidoyl = CCCCCCCCCCCCCCCCCCCC(=O)*; Palmitoyl = CCCCCCCCCCCCCCCC(=O)*
Recorded measurements of Tlast (last time point with detectable peptide), one per entry
propertyMeasured: Tlast (last time point with detectable peptide)

INSERT INTO measurements (molecule, recordedresult) VALUES
  ('CCCCCCCCCCCCCCCCCCCC(=O)N[C@@H](Cc1c[nH]cn1)C(=O)N[C@@H](CC(C)C)C(=O)NCC(=O)N[C@@H](CC(C)C)C(=O)N[C@@H](CCC(=O)O)C(=O)N[C@@H](CCC(=O)O)C(=O)N1CCC[C@H]1C(=O)N[C@@H](CCCCN)C(=O)N[C@@H](CCCCN)C(=O)O [compound 74] (Arachidoyl-HLGLEEPKK-OH; C-terminus assumed)', '8 h'),
  ('CCCCCCCCCCCCCCCC(=O)N[C@@H](CCCCN)C(=O)N[C@@H](Cc1c[nH]cn1)C(=O)N[C@@H](Cc1c[nH]cn1)C(=O)N[C@@H](CC(C)C)C(=O)NCC(=O)N[C@@H](CC(C)C)C(=O)N[C@@H](CCC(=O)O)C(=O)N[C@@H](CCC(=O)O)C(=O)N1CCC[C@H]1C(=O)N[C@@H](CCCCN)C(=O)N[C@@H](CCCCN)C(=O)N[C@@H](CC(C)C)C(=O)N[C@@H](CCCNC(=N)N)C(=O)O [compound 78] (Palmitoyl-KHHLGLEEPKKLR-OH)', '8 h');
